Target: human 3β-HSD1
Sequence (P14060 2-373 limits assumed): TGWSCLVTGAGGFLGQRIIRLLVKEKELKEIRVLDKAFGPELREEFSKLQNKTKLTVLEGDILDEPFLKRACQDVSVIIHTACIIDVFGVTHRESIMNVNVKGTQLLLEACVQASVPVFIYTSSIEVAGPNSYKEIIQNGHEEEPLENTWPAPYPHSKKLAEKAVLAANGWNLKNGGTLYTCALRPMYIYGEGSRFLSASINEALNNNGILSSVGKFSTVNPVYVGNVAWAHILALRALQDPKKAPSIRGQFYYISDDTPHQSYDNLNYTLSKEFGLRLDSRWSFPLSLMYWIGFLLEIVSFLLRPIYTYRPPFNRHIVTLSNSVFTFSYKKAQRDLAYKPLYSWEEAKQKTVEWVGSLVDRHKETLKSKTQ
Test: 3β-HSD1 inhibition, colorimetric NADH detection assay
Format: biochemical
Details: purified recombinant human 3β-HSD1, 50 μM DHEA, 2 mM NAD+, 1 hour, room temperature, duplicate 10-point CRC; read-out: IC50 (nM), in vitro NADH inhibition
ENDPOINT NAME: IC50 (nM)

The following compounds have reported results that may help.
# COMPOUND, STUDY TARGET, SCALE UNIT, IC50
data = [
    ("CC1(O)CCc2nc(-c3cc(F)c(O)c(F)c3)ccc2C1=O (stereo not shown)", "human 3β-HSD1", "nM", 446),
    ("CC1(C)CCc2nc(-c3cc(F)c(O)c(F)c3)ccc2C1(O)c1ccccc1 (stereo not shown)", "human 3β-HSD1", "nM", 314),
    ("CC1(C)CC(=O)c2ccc(-c3cc(F)c(O)c(F)c3)nc2C1", "human 3β-HSD1", "nM", 287),
    ("CC1(C)CCc2nc(-c3ccc(O)c(C(F)(F)F)c3)ccc2C1=O", "human 3β-HSD1", "nM", 1500),
    ("CC1(C)CCc2nc(-c3cc(F)c(O)c(F)c3)ccc2C1(C)O (stereo not shown)", "human 3β-HSD1", "nM", 376),
]

I. CC[C@]1(C)CCc2nc(-c3cc(F)c(O)c(F)c3)ccc2C1=O
II. CC1(C)CCc2nc(-c3ccc(O)c(C#N)c3)ccc2C1=O
Given the two records I and II , choose the one whose IC50 value is lower. Which one? Tell me its label.
I
(I: 110 nM, II: 1860 nM)

The origin of these recorded values is patent US20250241905A1.
